- assayed-system: Peroxisome proliferator-activated receptor gamma (Homo sapiens) (UniProt P37231)
- Sequence (P37231 whole entry, looked up): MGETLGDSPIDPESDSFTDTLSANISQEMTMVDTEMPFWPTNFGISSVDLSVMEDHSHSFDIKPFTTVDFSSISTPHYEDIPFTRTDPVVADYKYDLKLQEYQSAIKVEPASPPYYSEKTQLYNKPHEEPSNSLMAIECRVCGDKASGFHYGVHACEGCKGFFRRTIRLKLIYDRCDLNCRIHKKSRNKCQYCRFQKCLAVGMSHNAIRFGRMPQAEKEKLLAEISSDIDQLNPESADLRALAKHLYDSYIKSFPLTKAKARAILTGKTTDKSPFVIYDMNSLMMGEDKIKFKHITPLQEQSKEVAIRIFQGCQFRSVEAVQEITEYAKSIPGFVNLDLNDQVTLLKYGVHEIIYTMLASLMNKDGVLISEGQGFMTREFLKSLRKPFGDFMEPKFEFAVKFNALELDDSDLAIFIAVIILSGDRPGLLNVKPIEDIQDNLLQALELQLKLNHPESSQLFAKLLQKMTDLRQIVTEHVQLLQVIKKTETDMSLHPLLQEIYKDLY
- test-summary: PPARgamma agonists recruiting SRC-3 coactivator, primary screen, biochemical (AID 731);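 further: 0% = DMSO and 100% = reference agonist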
- experimental-context: biochemical PPARgamma/SRC-3 coactivator recruitment assay; at 8 µM; active compounds read high
In all, about 200,000 compounds went through this assay and about 520 (0.26%) were called active. This excerpt belongs to a sample that is enriched for actives.
assay-metric: activation (%)
Provide only the numeric value, understood in %.

Query: I have this compound here, Cc1cccc(N2C(=O)CC(SC(N)=Nc3ccccc3)C2=O)c1 (configuration not stated) , and I need its recorded activation.
Reply: -7.93

Query: Another compound to check: Cc1ccccc1NC(=O)C(C)c1ccc(-c2ccccc2)c(F)c1 (configuration not stated)
Reply: -1.23

Query: Another compound to check: `CCN(CC)CCCNC(=O)CCc1ccccc1`
Reply: 4

Query: Another compound to check: `Cc1ccc(NC(=O)OCc2cncs2)cc1`
Reply: 3.15

Query: Another compound to check: `CCN(CC)CCCNC(=O)c1cc(-c2cccc(Cl)c2)on1`
Reply: -5.33

---
Query: I have this compound here, Cc1cc(C)cc(C(=O)N(CCc2ccccc2)C2=CC3CCC(C2)N3C)c1 (configuration not stated) , and I need its recorded activation.
Reply: 0.55

Query: Another compound to check: `CN1CCC(OC(=O)COc2ccc(Cl)cc2Cl)CC1`
Reply: -2.65

Query: Another compound to check: `COC(=O)Cc1ccc(NC(=S)NCc2ccco2)cc1`
Reply: -0.79

Query: Another compound to check: CN(C)c1ccc(C(CC(=O)O)C(=O)O)cc1 (configuration not stated)
Reply: 5.46

Query: Another compound to check: `Cc1ccc2cc(C#N)c(NCCNC(=S)NCCCN3CCOCC3)nc2c1`
Reply: 1.37

Query: Another compound to check: `CCc1ccc(C(=O)OCC(=O)Nc2cccc(S(=O)(=O)NC3=NCCCCC3)c2)cc1`
Reply: -1.75

Query: Another compound to check: COc1ccc(/C=C/C(=O)NC(=S)NN2CCCCC2c2cccnc2)cc1 (configuration not stated)
Reply: -0.5

----------
# activation per entry
- assayed-system: Peroxisome proliferator-activated receptor gamma (Homo sapiens)
- test-summary: PPARgamma agonists recruiting SRC-3 coactivator, primary screen, biochemical (AID 731);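 further: 0% = DMSO and 100% = reference agonist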
- experimental-context: biochemical PPARgamma/SRC-3 coactivator recruitment assay; at 8 µM; active compounds read high
Screen size: about 200,000 compounds; about 520 (0.26%) were called active. Shown is part of a subset that was picked to be rich in actives.
Provide only the numeric value, understood in %.

Observe how each entry below is paired with its result.
Query: I have this molecule here, `CN(C)c1nnnn1-c1ccc(Cl)cc1` , and I need its recorded activation.
Reply: -1.68

Query: Another molecule to check: `O=C(C1=C[C@H](c2ccc(C(F)(F)F)cc2)C[C@H](OCc2ccc(CO)cc2)O1)N1CCN(Cc2ccccc2)CC1`
Reply: 5.31

Query: Another molecule to check: `Cc1cccc(NC(=O)c2cc([N+](=O)[O-])ccc2N2CCN(C)CC2)c1`
Reply: 4.61

Query: Another molecule to check: `CSCc1ccc(C(=O)Nc2cc(C)cc(C)c2)cc1`
Reply: -4.38

---
Query: I have this molecule here, `O=C(NCc1nnc(SCC(=O)N2CCC(Cc3ccccc3)CC2)o1)c1ccco1` , and I need its recorded activation.
Reply: -1.46

The measured values listed here are drawn from PubChem BioAssay AID731.
